# EXPERIMENTAL TARGET: T1, canine NGF tagged at the C-terminus with the Flag tag (canine, UniProt A0A8I3PYI3 122-241)
# T1 construct: mature; Expressed with baculovirus technology; also called feline NGF (processed form identical)
# T1 sequence (A0A8I3PYI3 entry or part of it): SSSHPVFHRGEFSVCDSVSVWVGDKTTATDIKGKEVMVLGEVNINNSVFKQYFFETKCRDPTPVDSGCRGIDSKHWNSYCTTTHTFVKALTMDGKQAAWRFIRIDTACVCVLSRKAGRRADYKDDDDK
# ASSAY NOTES: SPR off-rate assay, Fab-SASA on BSA chip
Listing of recorded koff by entry.
Report only the number, with the unit s⁻¹ understood.

Return koff for the following binder: AHF17604 (Fab, V domains shown, not shown: small tags and cut ends, Fab-SASA, combinatorial library) VH: DVQLVESGGDLVKPGGSLRLTCVASGLSLTSSSMVWVRQAPGKGLQWVSTIYSNRGTYYTDSVKGRFTISKDNAENTLYLQMNNLKTEDTATYYCAQIYYYDADYLHWYFDFWGQGALVTVSS VL: EIQMTQSPTSLSASVGDRVTITCRASEGIQNNLSWYQQTPGKAPKLLIYATSILHSGVPSRFSGSGSGTDFTLTISSLQPEDFATYYCQQGYKWPLTFGGGTKLEITR 4.66e-05

Return koff for the following binder: AHF17600 (Fab, V domains shown, not shown: small tags and cut ends) VH: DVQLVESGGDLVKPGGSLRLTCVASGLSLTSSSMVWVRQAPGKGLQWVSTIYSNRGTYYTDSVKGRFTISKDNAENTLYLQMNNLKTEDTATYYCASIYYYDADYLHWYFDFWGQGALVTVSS VL: EIQMTQSPTSLSASVGDRVTITCRASEGISNNLSWYQQTPGKAPKLLIYATSVLHSGVPSRFSGSGSGTDFTLTISSLQPEDFATYYCQQGYKWPLTFGGGTKLEITR 5.81e-05
